- system name: Calmodulin (CaM) (Homo sapiens)
- Construct: purchased Sigma, St. Louis, Mo
- protocol description: BSI free-solution CaM-Ca^2+ interaction
- Type: binding
- particulars: 5 μM CaM, 12.5-100 μM Ca^2+, pH 7.5, 25° C.; read-out: Kd CaM-Ca^2+, kinetic analysis (observed rates versus Ca^2+ concentration)
readout name: Kd (µM)
Give your result in µM as a bare value.

### Prompt Kd for `[Ca+2]` ?
### Response 3.36
